Tested on: cellular pERK in Kuramochi (WT KRAS) cell-line
Assay: Cell based pERK assay (HTRF), Kuramochi
Settings: Kuramochi (WT KRAS) cells, 2 hours incubation
result-type: EC50 (nM)
Quick reminder: number only, in nM, skip the unit.

# molecule C#Cc1c(F)ccc2cccc(-c3nc4c5c(nc(OCC67CCCN6CCC7)nc5c3F)N3CCCOC[C@@H]3CC4)c12 [Example 6-9] ; its EC50 = 376

Note to self: EC50 recorded for C#Cc1c(F)ccc2cc(O)cc(-c3nc4c5c(nc(OC[C@@]67CCCN6[C@H](COc6cc(C(F)(F)F)ncn6)CC7)nc5c3F)N3CCCOC[C@@H]3CC4)c12 [Example 6-12] was 1.34

The reported EC50 of the molecule Oc1cc(-c2nc3c4c(nc(OC[C@@]56CCCN5C[C@H](F)C6)nc4c2F)N2CCCOC[C@@H]2CC3)c2c(Cl)cccc2c1 [Example 19-1] was 582

// EC50 lookup, molecule = C#Cc1c(F)ccc2cc(N)cc(-c3nc4c5c(nc(OC[C@@]67CCCN6[C@H](COC(=O)N(C)C)CC7)nc5c3F)N3CCCOC[C@@H]3CC4)c12 [Example 23-4] , result: 4.1

Form field EC50, entry C#Cc1c(F)ccc2cccc(-c3nc4c5c(nc(OCC6(CN7CCCCC7)CC6)nc5c3F)N3CCCOC[C@@H]3CC4)c12 [Example 15-2] : 85.9

Value of measured EC50 for the entry Oc1cc(-c2nc3c4c(nc(OC[C@@]56CCCN5C[C@H](F)C6)nc4c2F)N2CCCOC[C@H]2CC3)c2c(F)c(F)ccc2c1 [Example 6-3] : 25.8

Per the records, this molecule ( C#Cc1c(F)ccc2cc(O)cc(-c3nc4c5c(nc(OC[C@@]67CCCN6[C@H](COC(=O)N(C)C)CC7)nc5c3F)N3CCCOC[C@@H]3CC4)c12 [Example 6-25] ) has EC50 equal to 17.9

Entry under test: C#Cc1c(F)ccc2cc(O)cc(-c3nc4c5c(nc(OC[C@@]67CCCN6C[C@@]6(CC6(F)F)C7)nc5c3F)N3CCCOC[C@@H]3CC4)c12 [Example 22-3] . Its EC50 was 2.55

Input CCc1c(F)ccc2cc(O)cc(-c3nc4c5c(nc(OC[C@@]67CCCN6C[C@H](F)C7)nc5c3F)N3CCCOCC3CC4)c12 (stereo partly shown) [Example 8-2] . Output EC50: 8.04

The molecule listed as C#Cc1c(F)ccc2cc(N)cc(-c3nc4c5c(nc(OC[C@@]67CCCN6C[C@H](F)C7)nc5c3F)N3CCCOC[C@@H]3CC4)c12 [Example 7-1] has a reported EC50 of 2.09
